- Tested on: cells treated with βA peptide
- assay method text: Protection of cells from βA peptide insult, statements in words (MTT assay, cells not singled out)
- Assay type: cell-based
- applied conditions: MTT reduction assay; PC12, IMR32, HUVEC cells where named in the sentence
endpoint: Protection of cells from βA peptide-induced toxicity, in words

compound	target or system	measured value
COc1cc(/C=C/C(=O)COC(=O)/C=C/c2ccc(O)c(OC)c2)ccc1O [Compound 6]	cells treated with βA peptide	protected
O=C(C=C(O)C=Cc1ccc(O)c(O)c1)CCc1ccc(O)cc1 [Compound 5]	cells treated with βA peptide	protected

====

- Tested on: PC12 cells
- assay method text: MTT reduction assay, βA peptide-induced toxicity, PC12 cells
- Format: cell-based, rat
- applied conditions: Table 4, ginkgo compounds; βA peptide(1-42)
endpoint: Anti-βA peptide(1-42) ED50 PC12

compound	endpoint	measured value
O=c1c(O)c(-c2ccc(O)c(O)c2)oc2cc(O)cc(O)c12 [Quercetin, reference compound]	Anti-βA peptide(1-42) ED50 PC12	>20 µg/mL
CC1C(=O)OC2C(O)C34C5CC(C(C)(C)C)C36C(OC(=O)C6O)OC4(C(=O)O5)C12O (centres unmarked) [Ginkgolide B, reference compound]	Anti-βA peptide(1-42) ED50 PC12	toxic
C[C@@H]1C(=O)O[C@H]2C[C@@]34[C@H]5C[C@@H](C(C)(C)C)[C@]36[C@@H](OC(=O)[C@@H]6O)O[C@@]4(C(=O)O5)[C@]21O [Ginkgolide A, reference compound]	Anti-βA peptide(1-42) ED50 PC12	toxic
CC(C)(C)[C@]1(O)CC2OC(=O)CC23C(=O)OC2OC(=O)[C@H](O)C231 (single isomer, unassigned; (-)) [(−)-Bilobalide, reference compound]	Anti-βA peptide(1-42) ED50 PC12	toxic
CCCCCC/C=C\CCCCCCCc1cccc(O)c1C(=O)O	Anti-βA peptide(1-42) ED50 PC12	2.0 µg/mL

====

- Tested on: PC12 cells
- assay method text: MTT reduction assay, βA peptide-induced toxicity, PC12 cells
- Assay type: cell-based, rat
- applied conditions: even at 200 μg/ml; βA peptide(25-35) and βA peptide(1-42)
endpoint: Protection of PC12 cells from βA peptide insults (control study)

compound	measured value
O=C1O[C@H]([C@@H](O)CO)C(O)=C1O [vitamin C, reference compound]	did not protect
CC1=C(/C=C/C(C)=C/C=C/C(C)=C/C=C/C=C(C)/C=C/C=C(C)/C=C/C2=C(C)CCCC2(C)C)C(C)(C)CCC1 [β-carotene, reference compound]	did not protect
Cc1c(C)c2c(c(C)c1O)CCC(C)(CCCC(C)CCCC(C)CCCC(C)C)O2 (stereo not shown) [vitamin E, reference compound]	did not protect
CC1=C(/C=C/C(C)=C/C=C/C(C)=C/CO)C(C)(C)CCC1 [vitamin A, reference compound]	did not protect

====

- System: cells treated with βA peptide
- assay method text: Protection of cells from βA peptide insult, statements in words (MTT assay, cells not singled out)
- Assay type: cell-based
- applied conditions: MTT reduction assay; PC12, IMR32, HUVEC cells where named in the sentence
endpoint: Protection of cells from βA peptide-induced toxicity, in words

compound	measured value
O=C(C=C(O)C=Cc1ccccc1)CCc1ccc(O)cc1 [Compound 8]	cytotoxic
O=C(CCc1ccccc1)CC(=O)CCc1ccc(O)cc1 [Compound 7]	cytotoxic

====

Listing: Anti-βA peptide(25-35) ED50 HUVEC of selected compounds
- Test system: HUVEC cells
- assay method text: MTT reduction assay, βA peptide-induced toxicity, HUVEC cells
- Assay type: cell-based, human
- applied conditions: Table 1, turmeric-derived natural product compounds; βA peptide(25-35)
- Method: The degree of βA insult was measured by 3-[4,5-dimethylthiazol-2-yl]-2,5-diphenyltetrazolium bromide (MTT) reduction assay. […] The detection of cell growth or cell death can be determined by observing the conversion of MTT to the colored product, MTT formazan, the concentration of which can be measured […] at 550 nm. Cells were incubated in MTT solution (5 mg/ml) at 37° C. for 2 hours. During this time, cells were observed under a microscope every 15 min. […]
endpoint: Anti-βA peptide(25-35) ED50 HUVEC (µg/mL)

compound	measured value
COc1cc(C=CC(=O)CC(=O)C=Cc2ccc(O)cc2)ccc1O [Compound 2]	4.5
COc1cc(/C=C/C(=O)COC(=O)/C=C/c2ccc(O)c(OC)c2)ccc1O [Compound 6]	1.5
O=C(C=Cc1ccc(O)cc1)CC(=O)CCc1ccc(O)cc1 [Compound 4]	0.8
O=C(C=C(O)C=Cc1ccc(O)c(O)c1)CCc1ccc(O)cc1 [Compound 5]	2.0
O=C(C=Cc1ccc(O)cc1)CC(=O)C=Cc1ccc(O)cc1 [Compound 3]	2.4
